Answer each item with its documented Emax.
system-tested: human ThRβ1 (Homo sapiens, UniProt P10828)
Construct: The cDNAs encoding the full length human ThRα1 and ThRβ1; expressed in transfected cells
Sequence (P10828 whole entry): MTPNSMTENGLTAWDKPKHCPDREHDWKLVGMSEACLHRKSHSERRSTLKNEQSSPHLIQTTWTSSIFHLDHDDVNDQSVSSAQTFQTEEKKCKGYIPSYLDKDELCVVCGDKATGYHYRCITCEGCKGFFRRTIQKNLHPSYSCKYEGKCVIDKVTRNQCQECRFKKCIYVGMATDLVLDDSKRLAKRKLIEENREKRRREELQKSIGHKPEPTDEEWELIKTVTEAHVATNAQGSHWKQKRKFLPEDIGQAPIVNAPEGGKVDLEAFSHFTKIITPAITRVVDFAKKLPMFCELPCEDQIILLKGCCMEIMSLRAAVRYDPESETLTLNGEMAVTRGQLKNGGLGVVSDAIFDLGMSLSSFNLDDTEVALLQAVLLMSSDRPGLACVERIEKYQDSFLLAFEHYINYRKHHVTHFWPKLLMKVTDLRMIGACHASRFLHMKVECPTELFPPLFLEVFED
assay-protocol: Reporter cell line (TRAF) assay, CHO/hThRβ1, alkaline phosphatase reporter
Format: cell-based
condition-context: CHO/hThRβ1 reporter cells, 48 hours incubation; read-out: β % agonism
Method: Vector Constructs, Generation of Reporter Cell Lines (TRAF), and Assay Procedure. The cDNAs encoding the full length human ThRα1 and ThRβ1 were cloned in the mammalian expression vector pMT-hGH. […] After 48 hours incubation at 37° C. in humidified chambers at 5% CO2 the level of alkaline phosphatase expressed and secreted into the cell culture medium was analyzed by chemiluminescence on MicroBeta Trilux.
One number for each entry, in %.

>>> numeric_readout("Cc1cc(NCC(=O)O)cc(C)c1Oc1ccc2[nH]cc(C(C)C)c2c1 [compound 4, reference compound]")
39.7
>>> numeric_readout("CCCc1c(-c2ccc(OC)cc2)[nH]c2ccc(Oc3c(Br)cc(CCC(=O)O)cc3Br)cc12 [Example 13]")
70.7
>>> numeric_readout("COc1ccc(-c2[nH]c3ccc(Oc4c(Br)cc(CCC(=O)O)cc4Br)cc3c2C)cc1 [Example 3]")
97.5
>>> numeric_readout("CCc1c(-c2ccc(OC)cc2)[nH]c2ccc(Oc3c(Br)cc(CCC(=O)O)cc3Br)cc12 [Example 10]")
79.7
>>> numeric_readout("CCc1c(-c2ccc3c(c2)OCO3)[nH]c2ccc(Oc3c(Cl)cc(CCC(=O)O)cc3Cl)cc12 [Example 8]")
76.9
>>> numeric_readout("CCOC(=O)CNc1cc(C)c(Oc2ccc3[nH]cc(C(C)C)c3c2)c(C)c1 [compound 3, reference compound]")
69.7

Answer for every listed entry: what is its Emax? The entries follow.
1. CCc1c(-c2ccc3c(c2)OCO3)[nH]c2ccc(Oc3c(Br)cc(CCC(=O)O)cc3Br)cc12 [Example 9]
2. COc1ccc(-c2[nH]c3ccc(Oc4c(Cl)cc(CCC(=O)O)cc4Cl)cc3c2C(C)C)cc1 [Comparative Example 2, reference compound]

1: 70.3; 2: 80.2
